pKi: −log10 of the molar value.
Could you please report measured pKi for the items listed next?

[ask] Param readout = pKi; param system = c-MET (Homo sapiens, UniProt P08581); param query = Nc1ncc(-c2cnn(C3CCCNCC3)c2)cc1-c1nnnn1-c1cccc(Cl)c1Cl (centres unmarked) ; response: value
Sequence (P08581 25-1390): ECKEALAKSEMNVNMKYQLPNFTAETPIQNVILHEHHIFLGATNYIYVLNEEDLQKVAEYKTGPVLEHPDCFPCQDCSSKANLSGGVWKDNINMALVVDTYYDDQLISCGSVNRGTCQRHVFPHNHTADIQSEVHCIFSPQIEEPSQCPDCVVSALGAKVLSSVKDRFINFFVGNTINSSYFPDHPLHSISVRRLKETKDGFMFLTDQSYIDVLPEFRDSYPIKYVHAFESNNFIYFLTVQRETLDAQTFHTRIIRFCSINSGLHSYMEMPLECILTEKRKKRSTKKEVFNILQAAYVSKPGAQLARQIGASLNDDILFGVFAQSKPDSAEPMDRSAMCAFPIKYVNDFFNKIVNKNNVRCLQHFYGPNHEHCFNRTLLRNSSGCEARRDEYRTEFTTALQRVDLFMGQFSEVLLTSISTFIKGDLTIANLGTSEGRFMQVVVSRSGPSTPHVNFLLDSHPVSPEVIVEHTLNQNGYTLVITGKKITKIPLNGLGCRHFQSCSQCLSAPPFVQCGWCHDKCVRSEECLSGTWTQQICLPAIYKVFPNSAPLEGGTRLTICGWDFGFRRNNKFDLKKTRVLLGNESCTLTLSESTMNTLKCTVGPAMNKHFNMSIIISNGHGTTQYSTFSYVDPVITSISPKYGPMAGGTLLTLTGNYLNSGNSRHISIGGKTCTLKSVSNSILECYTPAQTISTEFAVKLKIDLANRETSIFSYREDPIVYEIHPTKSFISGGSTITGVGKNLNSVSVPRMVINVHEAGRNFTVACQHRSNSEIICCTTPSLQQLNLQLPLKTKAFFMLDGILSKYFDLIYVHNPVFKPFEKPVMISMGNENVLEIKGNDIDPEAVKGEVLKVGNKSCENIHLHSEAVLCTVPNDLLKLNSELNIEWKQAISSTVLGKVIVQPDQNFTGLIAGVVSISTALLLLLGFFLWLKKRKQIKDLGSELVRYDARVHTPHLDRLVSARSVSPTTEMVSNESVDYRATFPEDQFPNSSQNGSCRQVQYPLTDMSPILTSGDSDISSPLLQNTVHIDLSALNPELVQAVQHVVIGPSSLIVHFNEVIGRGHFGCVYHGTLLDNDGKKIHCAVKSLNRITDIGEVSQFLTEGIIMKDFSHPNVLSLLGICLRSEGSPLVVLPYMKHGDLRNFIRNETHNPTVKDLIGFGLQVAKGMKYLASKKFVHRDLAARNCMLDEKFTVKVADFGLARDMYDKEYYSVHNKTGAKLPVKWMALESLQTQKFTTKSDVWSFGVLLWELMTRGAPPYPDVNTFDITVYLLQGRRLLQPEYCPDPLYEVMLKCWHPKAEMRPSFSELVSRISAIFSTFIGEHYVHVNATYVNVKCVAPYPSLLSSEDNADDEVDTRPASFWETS
[reply] ≥ 7.00

[ask] Entry NC(=O)[C@@H]1CCCN1Cc1ccc(-c2cnc(N)c(-c3nnnn3-c3cccc(Cl)c3Cl)c2)cc1 , system c-MET (Homo sapiens, UniProt P08581): what pKi was measured?
[reply] ≥ 7.00

[ask] // lookup pKi | system=c-MET (Homo sapiens, UniProt P08581) | key= Cc1c(F)cccc1-n1nnnc1-c1cc(-c2ccc(CN(C)C)cc2)cnc1N
[reply] 6.00 to 7.00

[ask] // lookup pKi | system=c-MET (Homo sapiens, UniProt P08581) | key= CCNC(=O)Nc1nc2cc(-c3cnc(N)c(-c4nnnn4-c4cccc(F)c4F)c3)c(F)cc2[nH]1
[reply] 6.00 to 7.00

[ask] Which measured pKi belongs to Nc1ncc(-c2cnn(C3CCNCC3)c2)cc1-c1nnnn1-c1c(F)cccc1F , tested on c-MET (Homo sapiens, UniProt P08581)?
[reply] ≥ 7.00

[ask] Notebook entry, c-MET (Homo sapiens, UniProt P08581) assay: pKi of CCN(CCO)Cc1ccc(-c2cnc(N)c(-c3nnnn3-c3cccc(F)c3F)c2)cc1 = ?
[reply] ≥ 7.00

[ask] For c-MET (Homo sapiens, UniProt P08581), provide pKi of Nc1ncc(-c2ccc(N3CCCC3)nc2)nc1-c1nnc(O)n1-c1cccc(F)c1F please.
[reply] 6.00 to 7.00

[ask] Missing value: pKi, c-MET (Homo sapiens, UniProt P08581), entry Nc1ncc(-c2nc3c(s2)CNCC3)cc1-c1nnnn1-c1cccc(Cl)c1F . Fill in?
[reply] 6.00 to 7.00
